- Tested on: ragweed (common ragweed, Ambrosia elatior)
- Test description: Test A preemergence
- Type: in vivo
- Condition info: Ambrosia artemisiifolia, pre-emergence, 240 h, 31 g ai/ha, Preemergence; 0 to 100 scale where 0 is no effect and 100 is complete control; read-out: Ragweed plant response rating
Reported property: pest or weed control at 31 g/ha (%)

Smiles record: O=C(Nc1cccc(F)c1F)[C@H]1C(=O)N(C2CC2)CC[C@@H]1c1ccc(F)cc1
Units: %
Experimental value: 0

Smiles record: Cc1ccc([C@H]2CN(C)C(=O)[C@@H]2C(=O)Nc2cccnc2F)cc1
Units: %
Experimental value: 50

Smiles record: CSc1ccccc1NC(=O)[C@H]1C(=O)NC[C@@H]1c1ccc(C(F)(F)F)cn1
Units: %
Experimental value: 0

Smiles record: CSc1ccccc1NC(=O)[C@H]1C(=O)N(C)C[C@@H]1c1ccc(F)c(OC(C)C)c1
Units: %
Experimental value: 10

FYI, the data here is from patent US12077503B2.
